The reported numbers originate from ChEMBL document CHEMBL5303304.

- Test system: HEK-293T
- procedureDetails: Incucyte cell viability with HEK293T; also: unitless GR value; below 1 slowed growth and below 0 cell loss
- Assay type: toxicity, cell-based
- runConditions: human, 24 h, 10 µM, compound concentration 10 uM, replicate number 1
// label = 1 if Growth Rate is not less than 0.2, otherwise 0

compound	system	class
CNC(=O)c1cc(C(=O)NC2CC2)cn(Cc2ccccc2)c1=O [GSK620]	HEK-293T	1
COc1ccc(Cl)cc1[C@]1(F)C(=O)Nc2cc(C(F)(F)F)ccc21 [FLINDOKALNER]	HEK-293T	1
Nc1ncnc2c1c(COc1cccc(Cl)c1)nn2C1CCOCC1	HEK-293T	1
COc1cc(C(=O)NC2CCN(C)CC2)ccc1Nc1ncc2c(n1)N(C1CCCC1)CC(F)(F)C(=O)N2C	HEK-293T	1
CC(=O)Nc1c(F)cc(C(=O)N[C@H]2CC[C@H](O)CC2)cc1O[C@@H](C)c1ccccc1 [GSK046]	HEK-293T	1
COC1(C#Cc2ccc(Cl)c(-c3ncc4c(n3)-c3sc(NC(C)=O)nc3CC4)c2)CCN(C)CC1	HEK-293T	0
CCN(c1ccccc1)c1cc(NC)[n+](C)c(C)n1.[Cl-]	HEK-293T	1
COCCOCn1c(S(C)(=O)=O)nc2c1c(=O)n(C)c(=O)n2C	HEK-293T	1
CCCNc1ccc2ncc(-c3ccncc3)n2n1	HEK-293T	0
CCc1ncnc(N2CCN(C(C)=O)CC2)c1C#Cc1ccc(N)nc1.Cl.Cl	HEK-293T	0
Cc1onc(O)c1CC(N)C(=O)O [(R,S)-AMPA]	HEK-293T	1
CC(C)c1cnc(NC(=O)Cc2ccccc2)s1	HEK-293T	1
C[C@@]1(Cc2ccc(C#N)cc2)C(=O)N(c2cc(Cl)cc(Cl)c2)c2ncc(C(=O)NC3(c4nc(C5CCC5)no4)CC3)n21 [BI 9446]	HEK-293T	1

---

Overview of recorded Growth Rate for various molecules
- Test system: U2OS
- procedureDetails: Incucyte cell viability with U2OS; also: unitless GR value; below 1 slowed growth and below 0 cell loss
- Type: toxicity, cell-based
- runConditions: human, 6 h, 10 µM, compound concentration 10 uM, replicate number 2

compoundStructureString	Growth Rate
O=C(NC1CCNCC1)c1n[nH]cc1NC(=O)c1c(Cl)cccc1Cl	0.71
O=C(NS(=O)(=O)N1CCC1)c1cc(C2CC2)c(OCC23CC4CC(CC(C4)C2)C3)cc1F	0.7
Oc1c(CN2CCCC2)cc(COCc2ccccc2)c2cccnc12	0.91
O=C1NC(Nc2ccccc2)=N/C1=C\c1ccc2c(c1)OCO2	0.78
C[C@@H](CN1CC[C@@]2(C)c3cccc(O)c3C[C@@H]1C2(C)C)OCc1ccccc1.Cl	0.85
COc1ccccc1Nc1nc(-c2nn(Cc3c(F)cc(OCCCO)cc3F)c3ccccc23)ncc1OC	0.89
Cn1nccc1Nc1nccc(-c2cc3c(s2)C(C)(C)N(CCN2CCOCC2)C3=O)n1	0.51
Cc1cn(CCN2CCN(c3ccccc3-c3cc(C#N)cc(C(=O)NCCCN4CCCC4)c3)CC2)c2ccccc12	-0.89
C[C@H](CCOc1cccc(CC(=O)O)c1)N(Cc1cccc(C(F)(F)F)c1Cl)CC(c1ccccc1)c1ccccc1.Cl	1
O=C(Nc1cccc(Nc2nccc(Nc3cccc(C(F)(F)F)c3)n2)c1)C1CC1	-0.36
Cc1cccc(F)c1C(=O)Nc1cnc(-c2cc3c(cc2Cl)OC(F)(F)O3)cn1	0.28
Cc1cc2nc(N3CCC(C(=O)NC4CCCC4)CC3)n(C(C)C)c2cc1C	0.39
N#Cc1ccnc(Nc2cc(C3CCN(C4COC4)CC3)cc(N3CCC(F)(F)C3)n2)c1	0.29
CC(C)(C#Cc1ccc(NC(=O)COc2ccccc2C(=O)c2ccccc2)c(Cl)c1)C(=O)O	0.76
COc1cc([N+](=O)[O-])ccc1NC(=O)c1ccccc1O	0.94
